Assay: isobaric coefficient of expansion
Settings: 308.15 K; 25000 kPa; Liquid; Microcalorimeter
reported metric: isobaric coefficient of expansion

Lookup: Name the reported isobaric coefficient of expansion value associated with the compound CCCC[n+]1cccc(C)c1.F[B-](F)(F)F [1-butyl-3-methylpyridinium tetrafluoroborate]
Found: 0.000563 1/K

Lookup: Could you share which isobaric coefficient of expansion value was measured for CCCCCCCC[n+]1ccn(C)c1.F[B-](F)(F)F [1-methyl-3-octylimidazolium tetrafluoroborate] ?
Found: 0.000572 1/K

Lookup: Consider the compound shown here: CCCCCCn1cc[n+](C)c1.F[B-](F)(F)F [1-hexyl-3-methylimidazolium tetrafluoroborate] What is its recorded isobaric coefficient of expansion?
Found: 0.000572 1/K

Lookup: Data request, read-out isobaric coefficient of expansion, for CCCCCC[n+]1ccn(C)c1.O=S(=O)([N-]S(=O)(=O)C(F)(F)F)C(F)(F)F
Found: 0.000618 1/K

Lookup: Recorded isobaric coefficient of expansion for CCn1cc[n+](C)c1.O=S(=O)([N-]S(=O)(=O)C(F)(F)F)C(F)(F)F , please?
Found: 0.000618 1/K

Lookup: Which isobaric coefficient of expansion is reported for this compound? CCn1cc[n+](C)c1.F[B-](F)(F)F [1-ethyl-3-methylimidazolium tetrafluoroborate]
Found: 0.000566 1/K

====

Test: isobaric coefficient of expansion
Conditions: 298.15 K; 35000 kPa; Liquid; Microcalorimeter
reported metric: isobaric coefficient of expansion

compound: CCn1cc[n+](C)c1.O=S(=O)([N-]S(=O)(=O)C(F)(F)F)C(F)(F)F
isobaric coefficient of expansion: 0.000606 1/K

Lookup: Query (compound): CCn1cc[n+](C)c1.F[B-](F)(F)F [1-ethyl-3-methylimidazolium tetrafluoroborate] ; field requested: isobaric coefficient of expansion
Found: 0.000561 1/K

Lookup: Suppose we examine the compound CCCCCCCC[n+]1ccn(C)c1.F[B-](F)(F)F [1-methyl-3-octylimidazolium tetrafluoroborate] ; what isobaric coefficient of expansion value has been reported?
Found: 0.000564 1/K

====

Experiment: isobaric coefficient of expansion
Conditions: 348.15 K; 10000 kPa; Liquid; Microcalorimeter
Catalogue of isobaric coefficient of expansion values

# example entries with known answers
molecule: CCCCCC[n+]1ccn(C)c1.O=S(=O)([N-]S(=O)(=O)C(F)(F)F)C(F)(F)F
isobaric coefficient of expansion: 0.000635 1/K
//
molecule: CCn1cc[n+](C)c1.F[B-](F)(F)F [1-ethyl-3-methylimidazolium tetrafluoroborate]
isobaric coefficient of expansion: 0.000574 1/K
//
molecule: CCn1cc[n+](C)c1.O=S(=O)([N-]S(=O)(=O)C(F)(F)F)C(F)(F)F
isobaric coefficient of expansion: 0.000629 1/K

Lookup: Entry under review: CCCC[n+]1cccc(C)c1.F[B-](F)(F)F [1-butyl-3-methylpyridinium tetrafluoroborate] . Reported isobaric coefficient of expansion?
Found: 0.000562 1/K

Lookup: Need isobaric coefficient of expansion, item CCCCCCCC[n+]1ccn(C)c1.F[B-](F)(F)F [1-methyl-3-octylimidazolium tetrafluoroborate]
Found: 0.000582 1/K

Lookup: GET /values?readout=isobaric coefficient of expansion&item= CCCCCCn1cc[n+](C)c1.F[B-](F)(F)F [1-hexyl-3-methylimidazolium tetrafluoroborate]
Found: 0.000582 1/K

====

Assay: isobaric coefficient of expansion
Settings: 278.15 K; 15000 kPa; Liquid; Microcalorimeter
isobaric coefficient of expansion values, listed per item

Observe how each entry below is paired with its result.
molecule: CCn1cc[n+](C)c1.O=S(=O)([N-]S(=O)(=O)C(F)(F)F)C(F)(F)F
meas value: 0.000651 1/K

molecule: CCCC[n+]1cccc(C)c1.F[B-](F)(F)F [1-butyl-3-methylpyridinium tetrafluoroborate]
meas value: 0.000596 1/K

molecule: CCn1cc[n+](C)c1.F[B-](F)(F)F [1-ethyl-3-methylimidazolium tetrafluoroborate]
meas value: 0.000596 1/K

molecule: CCCCCCCC[n+]1ccn(C)c1.F[B-](F)(F)F [1-methyl-3-octylimidazolium tetrafluoroborate]
meas value: 0.000605 1/K

Lookup: Quick one: isobaric coefficient of expansion for CCCCCC[n+]1ccn(C)c1.O=S(=O)([N-]S(=O)(=O)C(F)(F)F)C(F)(F)F ?
Found: 0.000654 1/K

Lookup: Which isobaric coefficient of expansion value is on record for CCCCCCn1cc[n+](C)c1.F[B-](F)(F)F [1-hexyl-3-methylimidazolium tetrafluoroborate] ?
Found: 0.000605 1/K

Entry source: the NIST ThermoML archive (doi:10.1021/je900482x)
